Source of measurements: patent US20170306031A1

koff overview
Target: T1, mouse GFRAL (analyte in Biacore assays) (mouse, UniProt Q6SJE0 20-349, limits assumed)
T1 construct: injected in solution over captured antibody
T1 sequence: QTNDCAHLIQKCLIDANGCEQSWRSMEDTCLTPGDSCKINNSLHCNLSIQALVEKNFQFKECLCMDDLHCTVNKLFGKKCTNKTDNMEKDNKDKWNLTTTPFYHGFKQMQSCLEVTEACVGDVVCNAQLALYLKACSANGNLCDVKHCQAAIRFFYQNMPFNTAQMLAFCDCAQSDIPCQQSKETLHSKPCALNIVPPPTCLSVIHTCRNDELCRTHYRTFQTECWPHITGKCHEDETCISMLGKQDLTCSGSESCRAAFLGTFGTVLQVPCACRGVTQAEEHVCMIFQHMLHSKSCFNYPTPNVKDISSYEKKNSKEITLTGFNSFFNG
Experiment: Biacore SPR, antibody captured, GFRAL injected
Express your answer in s⁻¹, writing the number without its unit.

// below: answered binders
{"binder": "antibody designated 25M22 (antibody, V domains shown, mouse hybridoma monoclonal) VH: QVQLQQSGPDLVKPGASVKISCKASGYTFTSYWVNWMKQRPGKGLEWIGRIYPGDGDTNYNGKFKGKATLTADKSSSTAYMQLSSLTSEDSAVYFCARAYLLRLRRTGYYAMDYWGQGTSVTVSS VL: DVVLTQTPLSLPVNIGDQASISCKSTKSLLNSDEFTYLDWYLQKPGQSPQLLIFLVSNRFSGVPDRFSGSGSGTDFTLKISRVEAEDLGVYYCFQSNYLPYTFGGGTKLEIK", "endpoint.label": "koff", "value.measured": 0.0001}
{"binder": "antibody designated 24G2 (antibody, V domains shown, mouse hybridoma monoclonal) VH: QVQLQQSGAELLKPGASVKLSCKASGYTFTTYWMHWVKQRPGQGLEWIGMIHPNSGSSNYNEKFKNKATLTVDKSSSTAYMQLSSLTSEDSAVYFCARSDYGFIPYFDYWGQGTTLTVSS VL: DILLTQSPAILSVSPGERVSFSCRASQSIGTSIHWYQQRTNGSPRLLIKYASESISGIPSRFSGSGSGTDFTLIINSVESEDIADYYCQQSNSWPTFTFGAGTKLELK", "endpoint.label": "koff", "value.measured": 0.00173}

Okay, next one:
get_value(item= antibody designated 19K19 (antibody, V domains shown, mouse hybridoma monoclonal) VH: QVQLQQSGPDLVKPGASVKISCKASGYAFTSYWMNWVKQRPGKGLEWIGRIYPGDGDTNYNGKFKGKATLTADKSSSTAYMQLSSLTSEDSAVYFCARAYLLRLRRTGYYAMDYWGQGTSVTVSS VL: DVVLTQTPLSLPVNIGDQASISCKSTKSLLNSDEFTYLDWYLQKPGQSPQLLIYLVSNRFSGVPDRFSGSGSGTDFTLKISRVEAEDLGVYYCFQSNYLPYTFGGGTKLEIK , readout=koff) returns 0.0034
